tested on: adjuvant-induced arthritis in rats; assay: Established adjuvant-induced arthritis in rats (paw volume of uninjected left hind paw); format: in vivo, Charles River Lewis male rats; details: Rattus norvegicus, 168 h; oral gavage daily, 7 days; established adjuvant-induced arthritis, Lewis male rats; ED50% by inspection of dose-response regression lines; read-out: ED50% Decrease From Control Paw Volume
readout_kind: ED50 (mg/kg)
Kindly answer with a numeric value in mg/kg, unit omitted.

Quick one: ED50 for OC(c1cc(-c2ccc(F)cc2)c(-c2ccc(F)cc2)s1)(C(F)F)C(F)(F)F (stereo not shown) ?
18

----------
system: adjuvant-induced arthritis in rats; assay: Established adjuvant-induced arthritis in rats (paw volume of uninjected left hind paw); assay type: in vivo, Charles River Lewis male rats; settings: Rattus norvegicus, 168 h; oral gavage daily, 7 days; established adjuvant-induced arthritis, Lewis male rats; ED50% by inspection of dose-response regression lines; read-out: ED50% Decrease From Control Paw Volume
readout_kind: ED50 (mg/kg)
Give a bare numeral; the unit mg/kg is implied.

Completed entries (count: 6):
{"columns": ["molecule", "unit_of_measure", "ED50"],
 "data": [
  ["COc1ccc(-c2cc(C(O)(C(F)(F)F)C(F)(F)F)sc2-c2ccc(SC)cc2)cc1", "mg/kg", 10],
  ["CCCCC1C(=O)N(c2ccccc2)N(c2ccccc2)C1=O [Phenylbutazone, reference compound]", "mg/kg", 10],
  ["OC(c1cc(-c2ccccc2)c(-c2ccccc2)s1)(C(F)(F)F)C(F)(F)F", "mg/kg", 21],
  ["Cc1c(C(O)(C(F)(F)Cl)C(F)(F)Cl)sc(-c2ccc(F)cc2)c1-c1ccc(F)cc1", "mg/kg", 12],
  ["CC(O)(c1cc(-c2ccc(F)cc2)c(-c2ccc(F)cc2)s1)C(F)(F)F (stereo not drawn)", "mg/kg", 5.5],
  ["OC(c1cc(-c2ccc(F)cc2)c(-c2ccc(Cl)cc2)s1)(C(F)(F)F)C(F)(F)F", "mg/kg", 9]
]}

ED50 for OC(c1cc(-c2ccc(F)cc2)c(-c2ccc(F)cc2)s1)(C(F)(F)F)C(F)(F)F ?
10

Entry OC(c1cc(-c2ccc(F)cc2)c(-c2ccc(F)cc2)s1)(C(F)(F)F)C(F)(F)Cl (stereo not drawn) : reported ED50 = ?
6.8

Query (molecule): OC(c1cc(-c2ccc(F)cc2)c(-c2ccc(F)cc2)s1)(C(F)(F)Cl)C(F)(F)Cl ; field requested: ED50
4.5
